Taken from patent US20140179896A1.

Molecular target: T1, mouse vascular endothelial growth factor receptor-2 Fc chimera (Flk-1-Fc) (mouse, UniProt P35918 20-762)
T1 construct: Bought from R&D Systems; also called mouse VEGFR-2; not shown: Fc part of the purchased chimera, not specified
T1 sequence (P35918 20-762, change not shown): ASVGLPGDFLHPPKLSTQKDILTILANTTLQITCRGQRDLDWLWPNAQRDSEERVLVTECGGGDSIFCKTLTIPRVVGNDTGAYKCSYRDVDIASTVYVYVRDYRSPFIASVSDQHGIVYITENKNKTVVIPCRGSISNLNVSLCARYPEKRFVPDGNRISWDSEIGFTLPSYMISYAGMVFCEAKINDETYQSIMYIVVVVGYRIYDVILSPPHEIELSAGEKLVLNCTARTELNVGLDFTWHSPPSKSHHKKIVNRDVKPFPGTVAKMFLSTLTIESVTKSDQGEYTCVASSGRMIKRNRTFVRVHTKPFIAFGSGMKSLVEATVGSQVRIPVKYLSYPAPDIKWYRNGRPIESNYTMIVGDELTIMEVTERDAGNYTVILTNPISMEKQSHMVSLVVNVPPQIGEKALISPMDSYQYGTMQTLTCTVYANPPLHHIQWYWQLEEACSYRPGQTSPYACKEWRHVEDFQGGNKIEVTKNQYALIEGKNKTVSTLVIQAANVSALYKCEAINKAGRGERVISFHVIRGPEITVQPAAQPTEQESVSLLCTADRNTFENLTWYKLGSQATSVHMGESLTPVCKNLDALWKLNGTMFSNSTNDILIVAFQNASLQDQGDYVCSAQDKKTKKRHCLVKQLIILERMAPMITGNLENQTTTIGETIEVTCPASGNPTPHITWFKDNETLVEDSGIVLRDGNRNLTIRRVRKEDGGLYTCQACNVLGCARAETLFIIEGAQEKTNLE
Experiment: radioactive equilibrium binding assay, 1 nM Flk-1-Fc, % of input bound
Description: To prepare ³⁵S-labeled binding proteins for analysis, mRNA was prepared as described above for RNA-protein fusion production but the linker ligation step was omitted. […] 50 μA of the reaction mixture and elution were dried onto a LumaPlate-96 (Packard) and the amount of ³⁵S on the plate was measured using a TopCount NXT instrument (Packard). […] Data was analyzed using the GraphPad Prizm software (GraphPad Software, Inc, San Diego, Calif.), fitted using a one site, non-linear binding equation.

{"columns": ["BINDER", "UNIT_TEXT", "Binding to 1 nM Flk-1, %"],
 "data": [
  ["F6 (designed binder, 10Fn3 clone, Del 1-8) EVVAATPTSLLISWRHPHFPTRYYRITYGETGGNSPVQEFTVPLQPPTATISGLKPGVDYTITGYAVTVEQNGRVLMTPISINYRT", "%", 2],
  ["E25 (designed binder, 10Fn3 clone, Del 1-8) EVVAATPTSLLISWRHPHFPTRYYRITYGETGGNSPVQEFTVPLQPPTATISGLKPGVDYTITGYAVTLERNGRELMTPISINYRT", "%", 28],
  ["C1 (designed binder, 10Fn3 clone, Del 1-8) EVVAATPTSLLISWRHPHFPTRYYRITYGETGGNSPVQEFTVPLQPPTATISGLKPGVDYTITGYAVTQERNGRELRTPISINYRT", "%", 13],
  ["C11 (designed binder, 10Fn3 clone, Del 1-8) EVVAATPTSLLISWRHPHFPTRYYRITYGETGGNSPVQEFTVPLQPPTATISGLKPGVDYTITGYAVTVERNGRVLIVPISINYRT", "%", 21],
  ["A8 (designed binder, 10Fn3 clone, Del 1-8) EVVAATPTSLLISWRHPHFPTRYYRITYGETGGNSPVQEFTVPLQPPTATISGLKPGVDYTITGYAVTDGLNGKYLFVPISINYRT", "%", 4]
]}
